# System: H2073
# TEST PROTOCOL: Cell viability dose-response, H2073
# Assay type: cell-based, human
# MEASUREMENT SETUP: Tables 3 and 4; read-out: IC50 (uM) vs indicated non-small cell lung cancer cell line H2073
// reported IC50 for each item listed

Observe how each entry below is paired with its result.
COC(=O)c1ccc(C(=O)Nc2nc3ccc(N)cc3s2)cc1 [SW001296-3]    49.5 µM
C#CCOc1ccc(C(=O)c2ccc(C(=O)Nc3nc4ccc(OC)cc4s3)cc2)cc1 [SW209049-1]    81 µM
C#CCOc1ccc(C(=O)c2ccc(C(=O)Nc3nc4ccc(OC)cc4s3)cc2)cc1 [SW209049-2]    18 µM

As a next step, examine the compound that follows.
IC50 recorded for this compound, COC(=O)c1ccc(C(=O)Nc2nc3ccc(N)cc3s2)cc1 [SW001296] , is 3.72 µM

Reference source for all entries: patent US9789096B2
